# reported apparent KD of MS2 coat protein; entries follow
System: MS2 coat protein
experiment_description: apparent KD of MS2 coat protein; designed switch direction (-1 OFF switch, 1 ON switch): -1; higher = weaker reporter binding
condition_label: Eterna round: R95; input ligand: microRNA oligo, concentration not stated
Report the figure along with its unit, number first.

Below are worked cases with known answers.
primary_sequence	value_observed
AAGGUGUUAGGAUAUCGUAGUUUGAGGCAGACGGGAUUUUGCGAGAAGGAACAUGAGGAUCACCCAUGUAGGAU [JR_Exclu4_Sub040] (puzzle: Exclusion 4)	25.9 nM
CUGAGCAGACGGAGAUCCAACAUGAGGAUCACCCAUGUCUCAAAAGCUUUUUGCUCGUCUUACCCUCCUCUGCUCUC [Ticeisor] (puzzle: Sensor v3, turn-off variant 1)	40.3 nM

Note: attention shifts to another entry.
Quick one: apparent KD of MS2 coat protein for GGAAAGGUAGGAUAUACGAAAAAAAAGGGUAGAAAAAAAACACAUGAGGAUCACCCAUGUAGAAGGACCAAAAG [salish99_ex2_r3_036] (puzzle: Exclusion 2) ?
36.1 nM

* * *

System: MS2 coat protein
experiment_description: apparent KD of MS2 coat protein; designed switch direction (-1 OFF switch, 1 ON switch): -1; higher = weaker reporter binding
condition_label: input ligand: FMN 200 uM
Quick reference for apparent KD of MS2 coat protein among some sequences
Write down the numeric answer in nM and omit the unit.

Example results:
primary_sequence	apparent KD of MS2 coat protein (nM)
UUGUUCCGUGUAGGAUAUUGGUCUCCCUCGGGCCGAGAAGGACAUGAGGAUCACCCAUGUAUGCUAUUAUCGCGCGUGGCGCAU [Design 92] (Eterna round: R96, puzzle: Exclusion NG 1)	209
AUGCCCUGAGGAUAUCUCAUCCCGCACAUGAGGAUCACCCAUGUUCUUCUCCGGGCUCCGAGAGAAGGCAGGCCUA [Armus6] (Eterna round: R97, puzzle: Exclusion 5)	68.2
CCAGCGUAUGUAAGGAUAUGCUGGUCGAAAGAUCAGCAGAAGGUACAUGAGGAUCACCCAUGUGUAAUCGUUGG [Mod of JL 5 - Jieux - Brourd's mod of Exclusion 4] (Eterna round: R97, puzzle: Brourd's mod of Exclusion 4)	52.7
AAAUUGGUAGAGGAUAUCGUACAGGAAACGAUGCGAGAAGGCUGCACAUGAGGAUCACCCAUGUUUAGUUGCGA [EX6 #42] (Eterna round: R97, puzzle: Exclusion 6)	19.2
AGGUCACAUGAGGAUCACCCAUGUCAGGAUAUCGUCACUGGAGCUGCGGCUCCAGUGACGAGAAGGGACAAUUA [E1/6-A3] (Eterna round: R97, puzzle: Exclusion 1)	372

# ---- query sequence ----
Could you share which apparent KD of MS2 coat protein value was measured for AUCCUACAUGAGGAUCACCCAUGUCAGGAUAUCCAAGAAAUGUGGCCUGAUUGGCCACGGAGAAGGGACGGGUG [jl-ex1-4.60 ViennaUCT mod] (Eterna round: R97, puzzle: Exclusion 1) ?
47.2

* * *

# Lookup of reported apparent KD of MS2 coat protein keyed by entry
System: MS2 coat protein
experiment_description: apparent KD of MS2 coat protein; higher = weaker reporter binding
condition_label: Eterna round: R101; input ligand: FMN 200 uM
Express your answer in nM, writing the number without its unit.

primary_sequence	units_of_measure	apparent KD of MS2 coat protein
GCAGCUAAUGCAGGAUAUCAGCACGUGUAGUGCUGAGAAGGGCACAUGAGGAUACCGACUGUGAUCAAUUAAUAUUAAUGCUGC [salish99#hingeEx3_55-58_003] (puzzle (switch architecture): Exclusion NG 1)	nM	6.87

Next item in the queue.
Given UGUAAUAUUAUAGGAUAUGGAUACGAUACGUAUCCAGAAGGGUGAUUAAACUAUAAUCUAUACAUGAGGAUCACCCAUGUUUAU [AtrosYaY10] (puzzle (switch architecture): Same State NG 1) , state its recorded apparent KD of MS2 coat protein.
157

* * *

Test system: MS2 coat protein
experiment_description: apparent KD of MS2 coat protein; designed switch direction (-1 OFF switch, 1 ON switch): 1; higher = weaker reporter binding
condition_label: input ligand: FMN 200 uM
The following sequences are shown together with reported apparent KD of MS2 coat protein values.
Write the number in µM without appending the unit.

Example entries and their recorded answers appear below.
primary_sequence	apparent KD of MS2 coat protein / µM
AUUUUUAAUGCAGGAUAUGAUUAACAUGAGGAUCACCCAUGUGGUGUUGUGAGUAAGGAGAGUGAUCAGAAGGGCAUUUUUUUA [JMF's solution 89] (Eterna round: R96, puzzle: Same State NG 2)	1.01
AGAUCAUGACGAGGAUAUGCCACAUGAGGAUCACCCAUGUAUGUGGUAGGACGCGUACGUCCAAAGCAGAAGGCGUCGUGGUCA [JL SSNG2 1.01] (Eterna round: R96, puzzle: Same State NG 2)	0.0172
UGGCUCAGACGAGGAUAUAUGCGAUCACAUGAGGAUCACCCAUGUCUCGAGCUUCGGCUCGAGGCAUAGAAGGCGUCUGAGCCU [SSNG2/4-A3] (Eterna round: R96, puzzle: Same State NG 2)	0.013

Here is another sequence to look at.
Form field: reported apparent KD of MS2 coat protein of UAAGUCAUGUAAGGAUAUGCAGCCGAAACGGCUGCAGAAGGUACUAUAAUUACAUGAGGAUCACCCAUGUUAUAAAAUUUAUAU [Mat - Same State NG 1 - JL mod - D77] (Eterna round: R96, puzzle: Same State NG 1)
0.0224

* * *

Tested on: K4 kissing-loop RNA reporter;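 further: bound reporter read as fluorescence of individual clusters on recovered sequencing chips by microscopy, with normalized cluster intensities fitted with a binding model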
experiment_description: apparent KD of K4 kissing-loop reporter; higher = weaker reporter binding
condition_label: Eterna round: R107; input ligand: arginine 13.2 mM
This section presents sequences with their documented apparent KD of K4 kissing-loop reporter values.
Give just the numeric value; nM need not be written.

primary_sequence	measured_target	apparent KD of K4 kissing-loop reporter, nM
AGAGAUAUAUGAGGAUAUGAGAUAGUUAAUGAGUGAGUUAUAGUGUAGUUUGGUUAGUGAUGUUAUUUAGAAGGCGUGAGUGAUG [reefmullin]	K4 kissing-loop RNA reporter	76.7
GUCUGUGUACUAGGAUAUGGUUGCAGGCAGUCAGGUCGCCUUUUCGGCGGCCAGUGAUGUUGGUGGCCAGAAGGAGUACGUGAUG [Raorin]	K4 kissing-loop RNA reporter	659
GAGCCAGAGGUUGCUGCGGGUUUCAGAGAUACCAGCCGUAUUGUAGGCCCUUGGCAGCUCGAGUGAUGUUCGAGCCGCCUCUGGC [Eredorxela]	K4 kissing-loop RNA reporter	102
GCCAGAGCGCGAAGGAGCGCCCUGACAGGUUGCUGCCGUGGGCAGUGAUGUUGCUCAGUCCGGCAGGUAGGUCGCGUGCUCUGGC	K4 kissing-loop RNA reporter	165
AACGUUUUGAGAAGGAGCGCGAUAAGCAGUGAUGUUGCUAAAAUUCUAUUUCAAUUUAAUACGCAGGUAGGUCGCUCAAUACGUA [JR_SSArginiB_Sub020]	K4 kissing-loop RNA reporter	136
GAAUAAUAAGUAGCAGUGAUGUUGCUACUACGAGGACCGGUACGGCCGCCACUCGAAUACGAGUGGACACUGCUACUACCACUCG [(H1)-(H2)-(Trp1)-(Trp2)-(T)'-(H)'-(T)''_Design8]	K4 kissing-loop RNA reporter	118
UCCUAGGUUCGUCGGCGAAAGCCCUGCGAAGGAGCGUGCGAAAGUACAGGUAGGUCGCGCAGUGAUGUUGCACCUAGGUAAUAAA [#07 K4 Arginine A Exclusion]	K4 kissing-loop RNA reporter	191
AAUAGGGAUAGUGAUGUUAUCCCUUAUGAUACCAGUGCCAUCGGACACCCUUGGCAGCAUACGGGCAGUGAUGUUGUUCUUGGAG [Exclusion Theophylline A GF 15]	K4 kissing-loop RNA reporter	75.5

Hi! What's the reported apparent KD of K4 kissing-loop reporter for AGUUAUGUAUCAGGAUAUUAGUGAUGUUUGUUUUUGUUAGUGAUGUUGAUAUUUGUUUUAUGUAUUUAAGAAGGGAUUGAGAUGU [qsszmullin] on K4 kissing-loop RNA reporter?
20.5

Try this sequence next: AAUGGCGAGUGAUGUUCGCCCACCAAUGAUACCAGUGCCAUCGGACACCCUUGGCAGCAUACGGGCAGUGAUGUUGCUCUUGGAA [Exclusion Theophylline A GF 26]
181

Item: GUGGUUUACGUAGGAUAUCGAUGAUGAGUAAAUGGAGUGAUGUUCCGAGAUUGAAUAUGAGAUGAGCGAGAAGGGCGGUUUAUGC [FMN B Same State; Euporia Solution 2]
36.9

Try the sequence GGAUGGUAGGCGGCCGCCACUAAAACUGAACACAUACAAGCCAGUGAUGUUGGUAUGAUGGAGUAUAGGACCGGGCCUAGAUAGA [Exclusion - Tryptophan B (Freestyle 4)]
367
